I'd appreciate it if you could supply Ki values for the items below.
- experimentalTarget: human 5-hydroxytryptamine-2C (h5-HT2C) receptor (Homo sapiens, UniProt P28335)
- Construct: expressed in transfected cells; host or cells: CHO (Chinese Hamster Ovary) cells; membrane preparation
- Sequence (P28335 33-458): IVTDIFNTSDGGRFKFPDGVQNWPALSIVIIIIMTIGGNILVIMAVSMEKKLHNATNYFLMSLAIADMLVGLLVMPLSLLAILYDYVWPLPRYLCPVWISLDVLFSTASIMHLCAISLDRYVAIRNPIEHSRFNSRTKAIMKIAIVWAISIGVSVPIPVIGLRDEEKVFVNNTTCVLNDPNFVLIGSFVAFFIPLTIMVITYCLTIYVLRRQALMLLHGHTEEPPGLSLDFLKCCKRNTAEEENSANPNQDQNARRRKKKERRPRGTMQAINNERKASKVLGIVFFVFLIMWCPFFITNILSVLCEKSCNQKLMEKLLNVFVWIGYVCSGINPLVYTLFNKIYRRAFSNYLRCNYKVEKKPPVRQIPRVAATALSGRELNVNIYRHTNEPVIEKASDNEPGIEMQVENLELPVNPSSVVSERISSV
- protocol: [125I]DOI binding to membranes of CHO cells expressing h5-HT2C receptor
- details: read-out: 5-HT2C Binding Ki avg
Structures can show the parent of a compound that is named as a salt.

QUERY: Report measured Ki on human 5-hydroxytryptamine-2C (h5-HT2C) receptor (Homo sapiens, UniProt P28335); entry: NC[C@@H]1CCc2cc(F)cc(-c3ccccc3)c2O1 [Compound 52, hydrochloride]
RESULT: > 50 nM

QUERY: Report measured Ki on human 5-hydroxytryptamine-2C (h5-HT2C) receptor (Homo sapiens, UniProt P28335); entry: COc1ccccc1-c1cccc2c1O[C@@H](CN)CC2 [Compound 15, hydrochloride]
RESULT: ≤ 10 nM

QUERY: Report measured Ki on human 5-hydroxytryptamine-2C (h5-HT2C) receptor (Homo sapiens, UniProt P28335); entry: CNC[C@@H]1CCc2cccc(-c3ccc(OC)cc3OC)c2O1 [Compound 24, hydrochloride]
RESULT: 10 to 50 nM

QUERY: Report measured Ki on human 5-hydroxytryptamine-2C (h5-HT2C) receptor (Homo sapiens, UniProt P28335); entry: NC[C@H]1C=Cc2cccc(-c3c(Cl)cccc3Cl)c2O1 [Compound 60, hydrochloride]
RESULT: ≤ 10 nM

QUERY: Report measured Ki on human 5-hydroxytryptamine-2C (h5-HT2C) receptor (Homo sapiens, UniProt P28335); entry: CNC[C@H]1CCc2cc(F)cc(-c3cccnc3)c2O1 [Compound 44, hydrochloride]
RESULT: 10 to 50 nM

QUERY: Report measured Ki on human 5-hydroxytryptamine-2C (h5-HT2C) receptor (Homo sapiens, UniProt P28335); entry: CNC[C@H]1CCc2cc(F)cc(-c3ccccc3)c2O1 [Compound 42, hydrochloride]
RESULT: ≤ 10 nM

QUERY: Report measured Ki on human 5-hydroxytryptamine-2C (h5-HT2C) receptor (Homo sapiens, UniProt P28335); entry: NC[C@H]1CCc2cc(F)cc(-c3c(Cl)cccc3Cl)c2O1 [Compound 57, hydrochloride]
RESULT: ≤ 10 nM

QUERY: Report measured Ki on human 5-hydroxytryptamine-2C (h5-HT2C) receptor (Homo sapiens, UniProt P28335); entry: Cc1cc(Cl)ccc1-c1c(F)ccc2c1O[C@@H](CN)CC2 [Compound 72, hydrochloride]
RESULT: ≤ 10 nM

QUERY: Report measured Ki on human 5-hydroxytryptamine-2C (h5-HT2C) receptor (Homo sapiens, UniProt P28335); entry: COc1ccc(-c2cccc3c2O[C@H](CN)CC3)c(OC)c1 [Compound 32, hydrochloride]
RESULT: 10 to 50 nM

QUERY: Report measured Ki on human 5-hydroxytryptamine-2C (h5-HT2C) receptor (Homo sapiens, UniProt P28335); entry: NC[C@@H]1CCc2cccc(-c3cc(Cl)ccc3Cl)c2O1 [Compound 28, hydrochloride]
RESULT: 10 to 50 nM

QUERY: Report measured Ki on human 5-hydroxytryptamine-2C (h5-HT2C) receptor (Homo sapiens, UniProt P28335); entry: NC[C@H]1CCc2ccc(F)c(-c3ccccc3Cl)c2O1 [Compound 71, hydrochloride]
RESULT: ≤ 10 nM

QUERY: Report measured Ki on human 5-hydroxytryptamine-2C (h5-HT2C) receptor (Homo sapiens, UniProt P28335); entry: CNC[C@H]1CCc2cc(F)cc(-c3ccccc3Cl)c2O1 [Compound 39, hydrochloride]
RESULT: ≤ 10 nM

QUERY: Report measured Ki on human 5-hydroxytryptamine-2C (h5-HT2C) receptor (Homo sapiens, UniProt P28335); entry: CNC[C@H]1CCc2cc(F)cc(-c3cc(Cl)ccc3Cl)c2O1 [Compound 40, hydrochloride]
RESULT: ≤ 10 nM

QUERY: Report measured Ki on human 5-hydroxytryptamine-2C (h5-HT2C) receptor (Homo sapiens, UniProt P28335); entry: NC[C@@H]1CCc2cc(F)cc(-c3ccccc3Cl)c2O1 [Compound 51, hydrochloride]
RESULT: 10 to 50 nM

QUERY: Report measured Ki on human 5-hydroxytryptamine-2C (h5-HT2C) receptor (Homo sapiens, UniProt P28335); entry: NC[C@H]1CCc2cccc(-c3cccnc3)c2O1 [Compound 18, hydrochloride]
RESULT: > 50 nM

QUERY: Report measured Ki on human 5-hydroxytryptamine-2C (h5-HT2C) receptor (Homo sapiens, UniProt P28335); entry: CNC[C@H]1CCc2cccc(-c3ccc(OC)cc3OC)c2O1 [Compound 7, hydrochloride]
RESULT: ≤ 10 nM

QUERY: Report measured Ki on human 5-hydroxytryptamine-2C (h5-HT2C) receptor (Homo sapiens, UniProt P28335); entry: NC[C@@H]1CCc2cccc(-c3ccccc3Cl)c2O1 [Compound 27, hydrochloride]
RESULT: 10 to 50 nM
